- ASSAY SYSTEM: Protein kinase C (PKC) (Homo sapiens) (UniProt O94806+P41743+P17252+P05129+Q05655+P05771+Q05513+Q02156+P24723+Q15139+Q04759)
- ASSAY TEXT: Activation of PKC in human Ramos cells assessed as PKD1 phosphorylation at S744/S748 at 10000 nM after 30 mins by Western blot analysis
- Assay type: cell-based
Active and inactive are the calls of the source. The rule behind the calls is not given here.
MEASUREMENT TYPE: Activity

Solved cases below.
CCCC(CCC)C(=O)OCC1(CO)C/C(=C\c2cccc3c2ccn3C)C(=O)O1 (stereo not given) ... Active
CCCC(CCC)C(=O)OCC1(CO)C/C(=C\c2ccc3ccn(C)c3c2)C(=O)O1 (stereo not given) ... Active
CCCC(CCC)C(=O)OCC1(CO)C/C(=C\c2cccc3ccn(C)c23)C(=O)O1 (stereo not given) ... Active
CCCC(CCC)C(=O)OCC1(CO)C/C(=C\c2cn(C)c3ccccc23)C(=O)O1 (stereo not given) ... Active

[ask] Give reported Activity value for CCCC(CCC)C(=O)OCC1(CO)C/C(=C\c2ccc3c(ccn3C)c2)C(=O)O1 (stereo not given)
[reply] Active

* * *

For each record, write down the corresponding Ratio Ki.
- Species: Homo sapiens
- ASSAY TEXT: Selectivity ratio of Ki for recombinant human PKC-epsilon to Ki for recombinant RasGRP1 C1 domain (unknown origin)
Reply: number alone, nothing else.

[ask] Give reported Ratio Ki value for CCCC(CCC)C(=O)OCC1(CO)C/C(=C\c2ccc3c(ccn3C)c2)C(=O)O1 (stereo not given)
[reply] 5.3

[ask] Give reported Ratio Ki value for CCCC(CCC)C(=O)OCC1(CO)C/C(=C\c2ccc3ccn(C)c3c2)C(=O)O1 (stereo not given)
[reply] 9.3

[ask] Give reported Ratio Ki value for CCCC(CCC)C(=O)OCC1(CO)C/C(=C\c2cn(C)c3ccccc23)C(=O)O1 (stereo not given)
[reply] 84

[ask] Give reported Ratio Ki value for CCCC(CCC)C(=O)OCC1(CO)C/C(=C\c2cccc3c2ccn3C)C(=O)O1 (stereo not given)
[reply] 9.4

[ask] Give reported Ratio Ki value for CCCC(CCC)C(=O)OCC1(CO)C/C(=C\c2cccc3ccn(C)c23)C(=O)O1 (stereo not given)
[reply] 17

* * *

- Species on record: Homo sapiens
- ASSAY TEXT: Selectivity ratio of Ki for recombinant human PKC-alpha to Ki for recombinant RasGRP1 C1 domain (unknown origin)
MEASUREMENT TYPE: Ratio Ki
Reply: number alone, nothing else.

[ask] Give reported Ratio Ki value for CCCC(CCC)C(=O)OCC1(CO)C/C(=C\c2ccc3ccn(C)c3c2)C(=O)O1 (stereo not given)
[reply] 9

[ask] Give reported Ratio Ki value for CCCC(CCC)C(=O)OCC1(CO)C/C(=C\c2cn(C)c3ccccc23)C(=O)O1 (stereo not given)
[reply] 65

[ask] Give reported Ratio Ki value for CCCC(CCC)C(=O)OCC1(CO)C/C(=C\c2cccc3ccn(C)c23)C(=O)O1 (stereo not given)
[reply] 19

[ask] Give reported Ratio Ki value for CCCC(CCC)C(=O)OCC1(CO)C/C(=C\c2ccc3c(ccn3C)c2)C(=O)O1 (stereo not given)
[reply] 24

[ask] Give reported Ratio Ki value for CCCC(CCC)C(=O)OCC1(CO)C/C(=C\c2cccc3c2ccn3C)C(=O)O1 (stereo not given)
[reply] 10

* * *

For each record, write down the corresponding Ratio Ki.
- Organism: Homo sapiens
- ASSAY TEXT: Selectivity ratio of Ki for recombinant human PKC-alpha to Ki for recombinant human GFP-tagged RasGRP3
Reply: number alone, nothing else.

[ask] Give reported Ratio Ki value for CCCC(CCC)C(=O)OCC1(CO)C/C(=C\c2ccc3c(ccn3C)c2)C(=O)O1 (stereo not given)
[reply] 24

[ask] Give reported Ratio Ki value for CCCC(CCC)C(=O)OCC1(CO)C/C(=C\c2ccc3ccn(C)c3c2)C(=O)O1 (stereo not given)
[reply] 6

[ask] Give reported Ratio Ki value for CCCC(CCC)C(=O)OCC1(CO)C/C(=C\c2cccc3c2ccn3C)C(=O)O1 (stereo not given)
[reply] 11

[ask] Give reported Ratio Ki value for CCCC(CCC)C(=O)OCC1(CO)C/C(=C\c2cccc3ccn(C)c23)C(=O)O1 (stereo not given)
[reply] 10

[ask] Give reported Ratio Ki value for CCCC(CCC)C(=O)OCC1(CO)C/C(=C\c2cn(C)c3ccccc23)C(=O)O1 (stereo not given)
[reply] 49

* * *

- Species: Homo sapiens
- ASSAY TEXT: Selectivity ratio of Ki for recombinant human PKC-epsilon to Ki for recombinant human GFP-tagged RasGRP3
Mark each entry rule met if its Ratio Ki sits below 10, and rule not met for all others.

[ask] State whether 10 exceeds Ratio Ki recorded for CCCC(CCC)C(=O)OCC1(CO)C/C(=C\c2cn(C)c3ccccc23)C(=O)O1 (stereo not given) .
[reply] rule not met

[ask] State whether 10 exceeds Ratio Ki recorded for CCCC(CCC)C(=O)OCC1(CO)C/C(=C\c2cccc3c2ccn3C)C(=O)O1 (stereo not given) .
[reply] rule met

[ask] State whether 10 exceeds Ratio Ki recorded for CCCC(CCC)C(=O)OCC1(CO)C/C(=C\c2ccc3c(ccn3C)c2)C(=O)O1 (stereo not given) .
[reply] rule met

[ask] State whether 10 exceeds Ratio Ki recorded for CCCC(CCC)C(=O)OCC1(CO)C/C(=C\c2ccc3ccn(C)c3c2)C(=O)O1 (stereo not given) .
[reply] rule met

[ask] State whether 10 exceeds Ratio Ki recorded for CCCC(CCC)C(=O)OCC1(CO)C/C(=C\c2cccc3ccn(C)c23)C(=O)O1 (stereo not given) .
[reply] rule not met

* * *

- ASSAY SYSTEM: Ras guanyl-releasing protein 3 (Homo sapiens)
- ASSAY TEXT: Activation of RasGRP3 (unknown origin) overexpressed in HEK293 cells assessed as ERK1/2 phosphorylation at 0.1 to 30 uM after 30 mins by Western blot analysis
- Format: cell-based
The source made the active and inactive calls. No cut-off for these calls is given here.
MEASUREMENT TYPE: Activity

Solved cases below.
CCCC(CCC)C(=O)OCC1(CO)C/C(=C\c2ccc3ccn(C)c3c2)C(=O)O1 (stereo not given) ... Active
CCCCCCCCCCCCCC(=O)O[C@@H]1[C@@H](C)[C@@]2(O)[C@@H](C=C(CO)C[C@]3(O)C(=O)C(C)=C[C@@H]23)[C@@H]2C(C)(C)[C@]12OC(C)=O ... Active
CCCC(CCC)C(=O)OCC1(CO)C/C(=C\c2ccc3c(ccn3C)c2)C(=O)O1 (stereo not given) ... Active
CCCC(CCC)C(=O)OCC1(CO)C/C(=C\c2cccc3ccn(C)c23)C(=O)O1 (stereo not given) ... Active

[ask] Give reported Activity value for CCCC(CCC)C(=O)OCC1(CO)C/C(=C\c2cccc3c2ccn3C)C(=O)O1 (stereo not given)
[reply] Active

* * *

For each record, write down the corresponding pKi.
- ASSAY SYSTEM: Ras guanyl-releasing protein 3 (Homo sapiens, UniProt Q8IV61)
- Sequence (Q8IV61 whole entry): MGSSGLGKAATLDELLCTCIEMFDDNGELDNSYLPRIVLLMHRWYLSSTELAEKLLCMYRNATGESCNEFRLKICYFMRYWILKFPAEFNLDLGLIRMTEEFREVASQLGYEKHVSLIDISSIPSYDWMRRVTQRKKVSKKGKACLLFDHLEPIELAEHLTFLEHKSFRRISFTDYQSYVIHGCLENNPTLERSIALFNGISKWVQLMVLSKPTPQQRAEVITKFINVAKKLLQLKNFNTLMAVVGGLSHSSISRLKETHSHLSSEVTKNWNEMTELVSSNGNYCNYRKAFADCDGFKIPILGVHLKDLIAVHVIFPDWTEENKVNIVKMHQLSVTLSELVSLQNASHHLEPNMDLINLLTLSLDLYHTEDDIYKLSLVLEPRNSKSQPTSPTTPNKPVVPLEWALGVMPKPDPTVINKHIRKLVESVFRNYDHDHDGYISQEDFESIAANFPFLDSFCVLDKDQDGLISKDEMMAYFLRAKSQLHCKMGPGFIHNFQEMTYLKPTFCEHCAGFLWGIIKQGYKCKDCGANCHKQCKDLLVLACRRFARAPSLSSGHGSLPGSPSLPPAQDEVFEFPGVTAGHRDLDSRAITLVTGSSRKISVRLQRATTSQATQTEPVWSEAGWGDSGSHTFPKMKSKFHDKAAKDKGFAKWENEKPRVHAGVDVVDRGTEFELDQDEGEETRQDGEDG
- ASSAY TEXT: Displacement of [3H]PDBu from recombinant human GFP-tagged RasGRP3 expressed in Escherichia coli BL21 after 5 mins by scintillation counting analysis in presence of phosphatidylserine
pKi (log units): -log10 of the concentration in mol/L.

[ask] Give reported pKi value for CCCC(CCC)C(=O)OCC1(CO)C/C(=C\c2ccc3ccn(C)c3c2)C(=O)O1 (stereo not given)
[reply] 8.91

[ask] Give reported pKi value for CCCC(CCC)C(=O)OCC1(CO)C/C(=C\c2cn(C)c3ccccc23)C(=O)O1 (stereo not given)
[reply] 9.48

[ask] Give reported pKi value for CCCC(CCC)C(=O)OCC1(CO)C/C(=C\c2cccc3ccn(C)c23)C(=O)O1 (stereo not given)
[reply] 8.95

[ask] Give reported pKi value for CCCC(CCC)C(=O)OCC1(CO)C/C(=C\c2ccc3c(ccn3C)c2)C(=O)O1 (stereo not given)
[reply] 9.47

[ask] Give reported pKi value for CCCC(CCC)C(=O)OCC1(CO)C/C(=C\c2cccc3c2ccn3C)C(=O)O1 (stereo not given)
[reply] 8.79

* * *

- ASSAY TEXT: Binding affinity to 9:1 DMPG/DMPC giant vesicle at 6.05 uM by fluorescence emission spectra analysis
- EXPERIMENTAL PARAMETERS: in the assay text read “9:1 DMPC/DMPG” for “9:1 DMPG/DMPC”
Calls of active or inactive are those of the source. The calls are words filed in the database; no cut-off is given here.
Parameter call: string, one of 1 (yes) for active, 0 (no) for inactive

[ask] Call for entry CCCC(CCC)C(=O)OCC1(CO)C/C(=C\c2cccc3ccn(C)c23)C(=O)O1 (stereo not drawn) :
[reply] 0 (no)

[ask] Call for entry CCCC(CCC)C(=O)OCC1(CO)C/C(=C\c2cccc3c2ccn3C)C(=O)O1 (stereo not drawn) :
[reply] 1 (yes)

[ask] Call for entry CCCC(CCC)C(=O)OCC1(CO)C/C(=C\c2cn(C)c3ccccc23)C(=O)O1 (stereo not drawn) :
[reply] 0 (no)
